# Test system: SK-MEL-28 melanoma
# procedureSummary: NCI-60 one-dose screen, 48 h (100 = growth as untreated, 0 = no growth, -100 = all killed)
# conditionDetails: 10 µM unless noted
The panel holds about 83,000 compounds, 20% with a hit somewhere; the sample as a whole holds those more often.
Reported growth values are given for each entry in this list.
Field format: number, assumed %, no unit text.

Example results:
molecule="C[C@@H]1C[C@H]2C(=O)OCC(NC(=O)[C@H](Cc3cc(F)cc(F)c3)NC(=O)Nc3ccc(Cl)cc3F)C(=O)N3CCC[C@H]3C(=O)N3CCCC[C@H]3C(=O)N[C@@H](C)C(=O)N2C1 (some centres undefined)" assayedsystem="SK-MEL-28 melanoma" measuredquantity=growth unitsymbol=% val=39.7
molecule=Cc1cc(Cl)cc(NS(=O)(=O)c2ccc(-c3cnc(C4CC4)o3)cc2)c1 assayedsystem="SK-MEL-28 melanoma" measuredquantity=growth unitsymbol=% val=55.4
molecule=NC(=O)c1c(NC(=O)c2cccc(OC(F)(F)F)c2)sc2c1CCC(=O)C2 assayedsystem="SK-MEL-28 melanoma" measuredquantity=growth unitsymbol=% val=82.6

Then this molecule:
Measured growth, CCN1CCN(c2cc(C(=O)Nc3nc4ccc(Oc5ccnc(C(=O)NC)c5)cc4s3)cc(C(F)(F)F)c2)CC1 : 76.8

###

Reported growth values are given for each entry in this list.
# Tested on: HCT-116 colon
# procedureSummary: NCI-60 one-dose screen, 48 h (100 = growth as untreated, 0 = no growth, -100 = all killed)
# conditionDetails: 10 µM unless noted
The panel holds about 83,000 compounds, 20% with a hit somewhere; the sample as a whole holds those more often.
Field format: number, assumed %, no unit text.

compound=CC1(COc2ccc3ncc(C#Cc4cncc(C(=O)Nc5cc(C(C)(C)C)on5)c4)n3n2)COC1 measuredquantity=growth val=17.9

Measured growth, CCC(=O)Nc1ccc(-c2nc(-c3cccc(O)c3)c(-c3ccnc(Br)c3)[nH]2)cc1 : 55.9

Measured growth, O=C(CCCCCCN1CC(=O)N2[C@@H](c3ccccc3)c3[nH]c4ccccc4c3C[C@H]2C1=O)NO : 20.9

Measured growth, CN1CCN(Cc2ccc(NC(=O)c3cncc(C#Cc4cnc5ccc(O[C@H]6CCOC6)nn45)c3)cc2C(F)(F)F)CC1 : -88.1

Measured growth, C=CCn1c(SCC(=O)c2ccc(OC)cc2)nnc1-c1ccc(OC)cc1 : 96.1

Measured growth, C/C(=N\NC(=S)Nc1ccc(Br)cc1)c1cc2ccccc2oc1=O : 16.3

###

# Test system: HT29 colon
# procedureSummary: NCI-60 one-dose screen, 48 h (100 = growth as untreated, 0 = no growth, -100 = all killed)
# conditionDetails: 10 µM unless noted
# Procedure: Growth inhibition of the HT29 human tumor cell line is measured as a screen for anti-cancer activity. Cells are grown in 96 well plates and exposed to the test compound for 48 hours. Compounds are tested at a single concentration, which is 10^-5 M for most compounds. The reported endpoint is percent growth (GI% or GIPRCNT), where numbers from 0 - 100% represent growth inhibition, and numbers from -100% - 0 represent cell death. For example, a value of 40 represents 60% growth inhibition. […]
This is part of a sample that, as a whole, favours compounds with a hit. Of some 83,000 tested, about 20% had one in any assay.
Would you please tag the item Satisfied when its growth is 30% or above, and Not satisfied when it is below?

molecule=CCc1ccc(NC(=O)N[C@@H](Cc2cccc(C)c2)C(=O)N[C@@H]2C(=O)N3CCC[C@H]3C(=O)N3CCCC[C@H]3C(=O)N[C@@H](CO)C(=O)N3C[C@H](C)C[C@H]3C(=O)O[C@H]2C)c(F)c1 classassignment=Satisfied
molecule=COc1ccccc1N1CCN(C2=NN=C(c3cccc(Cl)c3)c3ccccc3C2)CC1 classassignment="Not satisfied"
molecule=COC(=O)c1c(C(=O)OC)c2n(CC(=O)Nc3cccc4cccnc34)c3ccccc3n2c1C(=O)c1ccc(C)cc1 classassignment=Satisfied
molecule=O=C(NNc1nc2cc(F)cc(F)c2n2cccc12)c1ncccn1 classassignment="Not satisfied"
molecule=O=c1cc(-c2ccccc2)nc2sc(-c3c[nH]c4ccc(Br)cc34)nn12 classassignment=Satisfied

Query: Would you say c1cncc(-c2cn3nc(-c4c[nH]c5ccccc45)sc3n2)c1 shows growth at minimum 30%?
Response: Not satisfied

Query: Would you say C/C(=N\NC(=O)CSc1nc2sc3c(c2c(=O)n1-c1ccccc1)CCC(C)C3)c1ccc(Cl)cc1 (stereo not drawn) shows growth at minimum 30%?
Response: Satisfied

###

# System: SR leukemia
# procedureSummary: NCI-60 one-dose screen, 48 h (100 = growth as untreated, 0 = no growth, -100 = all killed)
# conditionDetails: 10 µM unless noted
Compounds without any hit were thinned out: in the full panel of roughly 83,000, 20% have a hit.
Reported growth values are given for each entry in this list.
Field format: number, assumed %, no unit text.

molecule="Cc1ccc(NC(=O)N[C@@H](Cc2cc(F)cc(F)c2)C(=O)NC2C(=O)N3CCC[C@H]3C(=O)N3CCCC[C@H]3C(=O)N[C@@H](C)C(=O)N3C[C@H](C)C[C@H]3C(=O)O[C@H]2C)c(F)c1 (stereo not given in full)" unitsymbol=% val=30.6

Measured growth, O=C(CCCCCCN1CC(=O)N2[C@@H](c3cccc(Cl)c3)c3[nH]c4ccccc4c3C[C@H]2C1=O)NO : 39.5

Measured growth, CS(=O)(=O)c1ccc(-c2nn(-c3ccccc3)cc2/C=N/NC(=O)c2ccncc2)cc1 : 87

Measured growth, Cc1cn(-c2cc(NC(=O)c3cncc(C#Cc4cnc5ccc(OCCCS(C)(=O)=O)nn45)c3)cc(C(F)(F)F)c2)cn1 : 2.78

###

# Tested on: HT29 colon
# procedureSummary: NCI-60 one-dose screen, 48 h (100 = growth as untreated, 0 = no growth, -100 = all killed)
# conditionDetails: 10 µM unless noted
About 83,000 compounds went through this panel and 20% of them were active in at least one assay; those are over-represented in the sample as a whole.
measuredQuantity: growth (%)
Field format: number, assumed %, no unit text.

Example results:
molecule="CC1CCc2c(sc3nc(SCC(=O)N/N=C/c4cccc(O)c4O)n(-c4ccccc4)c(=O)c23)C1 (configuration not stated)" measuredquantity=growth val=105
molecule="C#CCOc1ccc(C(Nc2ccc(Cl)cc2)c2nnnn2C2CCCCC2)cc1 (configuration not stated)" measuredquantity=growth val=92

Then this molecule:
Measured growth, CC1OC(O[C@@H]2[C@H](O)C(CO)OC(O[C@H]3COC(O[C@H]4CC[C@]5(C)[C@H]6CC[C@]78OC[C@@]9(CCC(C)(C)C[C@H]97)[C@H](O)C[C@@]8(C)[C@]6(C)CC[C@H]5C4(C)C)[C@@H](OC4OC(CO)[C@@H](O)[C@@H](O)[C@@H]4O)[C@@H]3O)[C@H]2OC2OC[C@@H](O)[C@@H](O)[C@@H]2O)[C@@H](O)[C@@H](O)[C@H]1O (some centres not stated) : -79

###

# Test system: A549/ATCC NSCLC
# procedureSummary: NCI-60 one-dose screen, 48 h (100 = growth as untreated, 0 = no growth, -100 = all killed)
# conditionDetails: 10 µM unless noted
This is part of a sample that, as a whole, favours compounds with a hit. Of some 83,000 tested, about 20% had one in any assay.
measuredQuantity: growth (%)
Field format: number, assumed %, no unit text.

Measured growth, Nc1nc(N)c2c(n1)NC(c1ccccc1)CC(c1ccc(Nc3nc(NCCO)nc(Nc4ccc(Cl)cc4)n3)cc1)=N2 (stereo not given) : 75.7

Measured growth, CCNC(=O)Oc1ccc(/C(=C(/C)c2ccccc2)c2ccc(OCCN3CCCC3)cc2)cc1 : 74.9

###

# Tested on: BT-549 breast
# procedureSummary: NCI-60 one-dose screen, 48 h (100 = growth as untreated, 0 = no growth, -100 = all killed)
# conditionDetails: 10 µM unless noted
This is part of a sample that, as a whole, favours compounds with a hit. Of some 83,000 tested, about 20% had one in any assay.
measuredQuantity: growth (%)
Field format: number, assumed %, no unit text.

Example results:
compound=COc1cc2cc(Oc3ccc(NC(=O)c4cccc(C(F)(F)F)c4)cc3)c(C)nc2cc1OCCN(C)C val=101
compound=Cc1nn(-c2ccccc2)c2nc(CCl)[nH]c(=O)c12 val=100
compound="C#CCOc1ccccc1C(Nc1ccccc1)c1nnnn1C1CCCCC1 (centres undefined)" val=109

Measured growth, COc1ccccc1N1CCN(C2=NN=C(c3cccc(Cl)c3)c3ccccc3C2)CC1 : 50.5

Measured growth, COc1cc(CNC(=O)Cc2ccccc2[N+](=O)[O-])ccc1OCC(=O)NO : 106

###

# Tested on: NCI-H460 lung
# procedureSummary: NCI-60 one-dose screen, 48 h
# conditionDetails: 10 µM unless noted
Compounds without any hit were thinned out: in the full panel of roughly 83,000, 20% have a hit. Calls of active or inactive are those of the source. Rule for the calls: active = growth percent below 10; inactive = the rest.
# output must be one of 1 = active, -1 = inactive

compound=C=C1C(=O)O[C@@H]2C[C@@H](C)/C=C\C(=O)[C@](C)(OC(C)=O)C[C@H](OC(=O)/C(C)=C\C)[C@@H]12 classassignment=-1
compound=NS(=O)(=O)c1ccc(-n2cc(CC=O)nn2)cc1 classassignment=-1
compound=CC(=O)C1=NN(c2ccc(Cl)cc2)C(=O)CN1C classassignment=-1
compound=COc1ccc([C@@H]2[C@@H](O)C(=O)N2c2cc(OC)c(OC)c(OC)c2)cc1 classassignment=1
compound="COc1ccc(Oc2ccc(C3CC(c4cc(OC)c(OC)c(OC)c4)=NN3C(C)=O)cc2)cc1 (centres undefined)" classassignment=-1

Query: Name the outcome recorded for Cn1c2ccccc2c2c3c(c4c5ccc(Br)cc5oc4c21)C(=O)N(O)C3=O in the assay.
Response: -1
